The reported numbers originate from patent US20140056903A1.

Biological target: T1, monkey GFRα3 expressed with a C-terminal myc-myc-hexahistidine tag (monkey (Mf), UniProt O60609 32-374 (human entry), limits assumed)
T1 construct: also called MfGFRα3-mmh; MfGFRα3-mmH
T1 chain: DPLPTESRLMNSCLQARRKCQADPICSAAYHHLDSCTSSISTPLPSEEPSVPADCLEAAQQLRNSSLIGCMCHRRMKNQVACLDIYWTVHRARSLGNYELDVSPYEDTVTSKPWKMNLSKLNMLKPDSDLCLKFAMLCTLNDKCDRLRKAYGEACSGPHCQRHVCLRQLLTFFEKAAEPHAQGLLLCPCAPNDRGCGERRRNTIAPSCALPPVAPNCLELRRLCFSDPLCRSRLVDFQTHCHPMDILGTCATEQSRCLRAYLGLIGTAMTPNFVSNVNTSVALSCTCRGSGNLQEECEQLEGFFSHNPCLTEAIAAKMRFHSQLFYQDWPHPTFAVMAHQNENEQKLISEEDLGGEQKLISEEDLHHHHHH
Experiment: SPR, Ab captured, 25C
observed.property: pKd
Quick note: pKd values are minus log10 of concentrations in mol/L.

H4H2364S (antibody, human IgG4, V domains shown, human IgG4 Fc (H4H)) VH: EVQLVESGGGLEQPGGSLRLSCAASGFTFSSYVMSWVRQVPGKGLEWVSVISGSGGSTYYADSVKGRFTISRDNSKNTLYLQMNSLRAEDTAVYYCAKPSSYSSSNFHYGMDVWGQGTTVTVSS VL: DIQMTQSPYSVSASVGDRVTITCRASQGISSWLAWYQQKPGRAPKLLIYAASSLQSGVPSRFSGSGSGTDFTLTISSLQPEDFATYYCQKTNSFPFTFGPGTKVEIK | 8.97

With those in mind, consider the next binder.
Please look at this binder and report its pKd: H4H2345S (antibody, human IgG4, V domains shown, human IgG4 Fc (H4H)) VH: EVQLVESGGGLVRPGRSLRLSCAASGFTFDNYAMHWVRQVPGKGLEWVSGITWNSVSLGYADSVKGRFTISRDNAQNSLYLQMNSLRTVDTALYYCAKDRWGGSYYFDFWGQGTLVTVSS VL: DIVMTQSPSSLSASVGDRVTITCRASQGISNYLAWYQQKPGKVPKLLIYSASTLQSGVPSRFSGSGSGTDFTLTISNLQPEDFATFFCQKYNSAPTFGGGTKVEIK 7.54
